Taken from ChEMBL document CHEMBL3046437.

Tested on: Pseudomonas
Assay: Antibacterial activity against Pseudomonas phaseolicola GSPB 2828 after 24 to 48 hr by two-fold serial dilution method
Format: functional
observationType: MIC

- cpdSmiles: "O=c1oc2ccccc2c2nc3c(cc12)CCC3"
  system: "Pseudomonas"
  result: "50 µg/mL"
- cpdSmiles: "O=C(N[C@H](CO)[C@H](O)c1ccc([N+](=O)[O-])cc1)C(Cl)Cl"
  system: "Pseudomonas"
  result: "6.25 µg/mL"
- cpdSmiles: "Cc1cccc2c1oc(=O)c1cc3c(nc12)CCC3"
  system: "Pseudomonas"
  result: "25 µg/mL"
- cpdSmiles: "Cc1ccc2oc(=O)c3cc4c(nc3c2c1)CCCC4"
  system: "Pseudomonas"
  result: "50 µg/mL"

Respectfully, I request MIC for each entry included below.
1. Cc1cccc2c1oc(=O)c1cc3c(nc12)CCCC3
2. O=c1oc2ccc(Cl)cc2c2nc3c(cc12)CCCC3

Reply:
1: 25 µg/mL; 2: 50 µg/mL
